# System: Lung
# Test method notes: Biodistribution in lung of B16F0 tumor bearing C57BL/6J mouse at 0.37-0.74 MBq, iv after 1 hr
# Type: ADME, organism-based
# Cond: in vivo
Measured metric: Drug uptake (% ID/g)
Form entry: value (% ID/g) — number only.

Consider the reported Drug uptake for these compounds:
- Compound: "CCN(CC)CCNC(=O)c1cc([123I])c(NS(=O)(=O)c2ccc(C)cc2)cc1OC"
  Display unit: "% ID/g"
  Meas value: 0.62
- Compound: "O=C(NCCCCN1CC2CCC1C2)c1ccc([123I])cc1 (configuration not stated)"
  Display unit: "% ID/g"
  Meas value: 6.9
- Compound: "CCCN(CCC)CCCCNC(=O)c1ccc([123I])cc1"
  Display unit: "% ID/g"
  Meas value: 8.2
- Compound: "O=C(NC1CCN(CCO)CC1)c1ccc([123I])cc1"
  Display unit: "% ID/g"
  Meas value: 17.8
- Compound: "CCCCN(C)CCCCNC(=O)c1cc([123I])c(NC(C)=O)cc1OC"
  Display unit: "% ID/g"
  Meas value: 1.9
- Compound: "CCCN(CCC)CCCCNC(=O)c1cc([123I])c(NC(C)=O)cc1OC"
  Display unit: "% ID/g"
  Meas value: 1.7

Could you now look at the following compound, please?
Look at this compound and give its reported Drug uptake. `O=C(NC1CCN(CCF)CC1)c1ccc(I)cc1`
10.8
